Assignment: determine reported pIC50 for the given compounds.
System name: 20S immunoproteasome (Bos taurus, UniProt Q3SZC2+Q3T0T1+Q3T112)
Construct: isolated constitutive and immunoproteasomes purified from bovine brain and thymus, respectively; from tissue; host or cells: bovine thymus
Test protocol: In vitro activity assays on isolated immunoproteasome (fluorogenic peptides)
Format: biochemical
Test settings: isolated 20S from bovine thymus; read-out: IC50 BrAAP Immunoproteasome
Experimental: PVLs effects on the 20S constitutive and immunoproteasome peptidase activities were measured through in vitro assays performed with fluorogenic peptides as substrates. […] Final incubation was performed at 37°C, and after 60 min the fluorescence of the hydrolyzed 7‐amino‐4‐methyl‐coumarin (AMC) and 4‐aminobenzoic acid (pAB) was detected (AMC, λexc = 365 nm, λem = 449 nm; pAB, λexc = 304 nm, λem = 664 nm) on a SpectraMax Gemini XPS microplate reader. […]
Numbers only, as −log10 of the molar value.

Solved cases (2 shown):
Compound	System name	pIC50
O=C1CCC(Cc2ccc(O)c(O)c2)O1 (stereo not drawn)	20S immunoproteasome (Bos taurus, UniProt Q3SZC2+Q3T0T1+Q3T112)	7.21
O=C1CCC(Cc2ccc(OS(=O)(=O)O)c(O)c2)O1 (stereo not drawn)	20S immunoproteasome (Bos taurus, UniProt Q3SZC2+Q3T0T1+Q3T112)	7.05

Provide the documented pIC50 with 20S immunoproteasome (Bos taurus, UniProt Q3SZC2+Q3T0T1+Q3T112) as the system for O=C1CCC(Cc2ccc(O)cc2)O1 (stereo not drawn) [Compound C1, 5‐(4ʹ‐hydroxyphenyl)‐γ‐valerolactone]
6.66

====

Assignment: determine reported pIC50 for the given compounds.
System name: 20S immunoproteasome (Bos taurus, UniProt Q3SZC2+Q3T0T1+Q3T112)
Construct: isolated constitutive and immunoproteasomes purified from bovine brain and thymus, respectively; from tissue; host or cells: bovine thymus
Test protocol: In vitro activity assays on isolated immunoproteasome (fluorogenic peptides)
Type: biochemical
Test settings: isolated 20S from bovine thymus; read-out: IC50 PGPH Immunoproteasome
Answers are plain numbers, as −log10 of the molar value.

Solved cases (2 shown):
Compound	pIC50
O=C1CCC(Cc2ccc(O)c(O)c2)O1 (stereo not drawn) [Compound C2]	6.94
O=C1CCC(Cc2ccc(OS(=O)(=O)O)c(O)c2)O1 (stereo not drawn) [Compound C3]	7.14

Note: attention shifts to another entry.
Return reported pIC50; argument: O=C1CCC(Cc2ccc(O)cc2)O1 (stereo not drawn) [Compound C1, 5‐(4ʹ‐hydroxyphenyl)‐γ‐valerolactone]
7.38

====

System name: constitutive 20S proteasome (Bos taurus, UniProt Q2TBP0+Q32KL2+Q3MHN0)
Construct: isolated constitutive and immunoproteasomes purified from bovine brain and thymus, respectively; from tissue; host or cells: bovine brain
Test protocol: In vitro activity assays on isolated constitutive 20S proteasome (fluorogenic peptides)
Assay type: biochemical
Test settings: isolated 20S from bovine brain; read-out: IC50 T‐L Constitutive proteasome
Metric name: IC50

Molecule	System name	IC50
O=C1CCC(Cc2ccc(OS(=O)(=O)O)c(O)c2)O1 (stereo not drawn) [Compound C3]	constitutive 20S proteasome (Bos taurus, UniProt Q2TBP0+Q32KL2+Q3MHN0)	56.8 nM

Return reported IC50 values for all items listed beneath this line.
1. O=C1CCC(Cc2ccc(O)c(O)c2)O1 (stereo not drawn) [Compound C2]
2. O=C1CCC(Cc2ccc(O)cc2)O1 (stereo not drawn) [Compound C1, 5‐(4ʹ‐hydroxyphenyl)‐γ‐valerolactone]

1: 87.4 nM; 2: 13 nM
